- study_target: Gcr1 (UniProt P07261)
- Sequence: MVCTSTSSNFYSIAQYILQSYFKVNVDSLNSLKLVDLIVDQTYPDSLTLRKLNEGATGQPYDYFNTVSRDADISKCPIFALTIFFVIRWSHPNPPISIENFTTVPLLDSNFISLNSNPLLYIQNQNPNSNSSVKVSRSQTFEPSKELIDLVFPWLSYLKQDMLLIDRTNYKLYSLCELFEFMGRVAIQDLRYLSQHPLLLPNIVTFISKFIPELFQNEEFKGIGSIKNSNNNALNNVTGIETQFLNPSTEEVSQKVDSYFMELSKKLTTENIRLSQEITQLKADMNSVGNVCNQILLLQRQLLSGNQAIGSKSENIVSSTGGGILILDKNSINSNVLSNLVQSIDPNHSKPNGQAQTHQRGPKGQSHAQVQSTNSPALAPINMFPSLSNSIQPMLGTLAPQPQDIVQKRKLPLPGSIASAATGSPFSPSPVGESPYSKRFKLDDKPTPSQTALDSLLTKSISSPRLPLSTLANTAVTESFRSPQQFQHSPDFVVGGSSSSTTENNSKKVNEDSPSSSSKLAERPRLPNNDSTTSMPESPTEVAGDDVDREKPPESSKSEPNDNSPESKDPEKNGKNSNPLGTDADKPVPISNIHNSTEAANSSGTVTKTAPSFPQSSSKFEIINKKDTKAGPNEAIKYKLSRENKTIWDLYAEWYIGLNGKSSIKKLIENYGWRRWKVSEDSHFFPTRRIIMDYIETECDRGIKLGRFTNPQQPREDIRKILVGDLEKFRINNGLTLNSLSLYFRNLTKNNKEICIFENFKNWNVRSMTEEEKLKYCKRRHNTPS
- assay_method_text: PBM E-score (8-mer binding enrichment) (E-score (-0.5 to 0.5)); higher = stronger / more preferred TF binding
- conditions_used: protein concentration: 100 nM; construct: GST-full length
Whole data set: some 33,000 sequences, median “E-score (-0.5 to 0.5)” near -0.011, cut for the highest 2% near 0.28. The sample holds the highest values, similar sequences and a random draw of the others, so the mix is not that of the screen.
The recorded PBM E-score of each item maps onto one of these classes: class 1 (below -0.03), class 2 (-0.03 to below 0.2), class 3 (0.2 or more)

Before answering, review these 5 worked examples.
macromolecule_sequence=ACTTCCCA class_label="class 2"
macromolecule_sequence=CAGGATGC class_label="class 3"
macromolecule_sequence=AGATTCCC class_label="class 3"
macromolecule_sequence=ATTCATAA class_label="class 2"
macromolecule_sequence=CAGGATGA class_label="class 2"

Next, consider the following sequence.
Sort CATAGGAA into one of the categories. class 2

* * *

- study_target: Gcr1 (UniProt P07261)
- Sequence: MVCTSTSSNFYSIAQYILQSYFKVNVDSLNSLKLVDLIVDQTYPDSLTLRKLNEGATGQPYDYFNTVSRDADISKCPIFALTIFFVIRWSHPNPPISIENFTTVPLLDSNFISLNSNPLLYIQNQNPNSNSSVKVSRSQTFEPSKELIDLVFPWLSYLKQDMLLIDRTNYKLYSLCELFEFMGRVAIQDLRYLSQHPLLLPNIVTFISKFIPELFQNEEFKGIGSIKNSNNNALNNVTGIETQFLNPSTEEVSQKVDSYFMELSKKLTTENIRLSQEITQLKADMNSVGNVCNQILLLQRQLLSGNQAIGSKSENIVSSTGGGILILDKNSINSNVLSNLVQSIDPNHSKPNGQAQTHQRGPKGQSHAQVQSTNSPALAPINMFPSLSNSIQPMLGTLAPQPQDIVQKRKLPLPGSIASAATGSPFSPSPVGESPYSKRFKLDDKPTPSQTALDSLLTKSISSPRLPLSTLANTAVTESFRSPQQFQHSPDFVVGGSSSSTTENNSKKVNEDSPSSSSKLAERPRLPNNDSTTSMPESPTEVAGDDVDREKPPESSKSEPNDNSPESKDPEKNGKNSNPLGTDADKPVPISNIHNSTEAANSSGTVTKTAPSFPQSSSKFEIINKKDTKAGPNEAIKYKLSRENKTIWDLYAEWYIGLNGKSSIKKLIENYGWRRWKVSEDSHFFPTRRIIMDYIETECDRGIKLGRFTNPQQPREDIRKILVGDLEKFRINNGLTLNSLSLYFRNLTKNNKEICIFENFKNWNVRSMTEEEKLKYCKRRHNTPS
- assay_method_text: PBM E-score (8-mer binding enrichment) (E-score (-0.5 to 0.5)); higher = stronger / more preferred TF binding
- conditions_used: protein concentration: 100 nM; construct: GST-full length
In all, about 33,000 sequences were measured (“E-score (-0.5 to 0.5)”: median about -0.011, highest 2% from about 0.28 on). This is one part of a sample in which the highest values are shown more often than they occur.
reported_property: PBM E-score
Give bare numbers.

Past entries and their recorded results:
macromolecule_sequence=GCCTTCTA reported_property="PBM E-score" quantitative_result=0.131
macromolecule_sequence=ATGATTCA reported_property="PBM E-score" quantitative_result=-0.105
macromolecule_sequence=TGAGCACA reported_property="PBM E-score" quantitative_result=-0.235
macromolecule_sequence=CTAGCACC reported_property="PBM E-score" quantitative_result=0.31
macromolecule_sequence=ATACGTAT reported_property="PBM E-score" quantitative_result=0.284

Respectfully, I request PBM E-score for each entry included below.
1. CAAGATTC
2. AGCTTCTG
3. AACTGTGC
4. AGCTTCTA
5. GGCTTCTA
6. AAAAATTC

[0.122, 0.245, -0.181, 0.297, 0.297, 0.0187]
